# Run Description: Pharmacokinetic test after intragastric administration
# Type: in vivo
# Test Context: Sprague-Dawley, mouse, plasma, po; SD mice, 5 mg/kg intragastric; read-out: Area under the curve (AUC0-24, ng/ml · h)
Quantity Name: AUC(0-t) (ng·h/mL)

Worked examples follow.
CN(c1c(C#N)cnc2[nH]ccc12)[C@H]1C[C@@H]2CN(C(=O)Nc3nc(OCC(C)(C)N)ns3)C[C@@H]2C1	1680
CN(C)c1nsc(NC(=O)N2C[C@H]3C[C@H](N(C)c4c(C#N)cnc5[nH]ccc45)C[C@H]3C2)n1	1820

P. CCCS(=O)(=O)N[C@H]1C[C@@H](N(C)c2c(C#N)cnc3[nH]ccc23)C1
Q. N#Cc1cnc2[nH]ccc2c1N1CC2CN(C(=O)NCC(F)(F)F)CC21 (stereo not shown)
Ask: Compare reported AUC(0-t) values for P and Q . Which is lower? # respond with the chosen item's label
Result: P
(P: 915 ng·h/mL, Q: 1560 ng·h/mL)

---

# Target Or Test System: JAK3 (Homo sapiens (Human), UniProt P52333)
# Sequence (P52333 whole entry): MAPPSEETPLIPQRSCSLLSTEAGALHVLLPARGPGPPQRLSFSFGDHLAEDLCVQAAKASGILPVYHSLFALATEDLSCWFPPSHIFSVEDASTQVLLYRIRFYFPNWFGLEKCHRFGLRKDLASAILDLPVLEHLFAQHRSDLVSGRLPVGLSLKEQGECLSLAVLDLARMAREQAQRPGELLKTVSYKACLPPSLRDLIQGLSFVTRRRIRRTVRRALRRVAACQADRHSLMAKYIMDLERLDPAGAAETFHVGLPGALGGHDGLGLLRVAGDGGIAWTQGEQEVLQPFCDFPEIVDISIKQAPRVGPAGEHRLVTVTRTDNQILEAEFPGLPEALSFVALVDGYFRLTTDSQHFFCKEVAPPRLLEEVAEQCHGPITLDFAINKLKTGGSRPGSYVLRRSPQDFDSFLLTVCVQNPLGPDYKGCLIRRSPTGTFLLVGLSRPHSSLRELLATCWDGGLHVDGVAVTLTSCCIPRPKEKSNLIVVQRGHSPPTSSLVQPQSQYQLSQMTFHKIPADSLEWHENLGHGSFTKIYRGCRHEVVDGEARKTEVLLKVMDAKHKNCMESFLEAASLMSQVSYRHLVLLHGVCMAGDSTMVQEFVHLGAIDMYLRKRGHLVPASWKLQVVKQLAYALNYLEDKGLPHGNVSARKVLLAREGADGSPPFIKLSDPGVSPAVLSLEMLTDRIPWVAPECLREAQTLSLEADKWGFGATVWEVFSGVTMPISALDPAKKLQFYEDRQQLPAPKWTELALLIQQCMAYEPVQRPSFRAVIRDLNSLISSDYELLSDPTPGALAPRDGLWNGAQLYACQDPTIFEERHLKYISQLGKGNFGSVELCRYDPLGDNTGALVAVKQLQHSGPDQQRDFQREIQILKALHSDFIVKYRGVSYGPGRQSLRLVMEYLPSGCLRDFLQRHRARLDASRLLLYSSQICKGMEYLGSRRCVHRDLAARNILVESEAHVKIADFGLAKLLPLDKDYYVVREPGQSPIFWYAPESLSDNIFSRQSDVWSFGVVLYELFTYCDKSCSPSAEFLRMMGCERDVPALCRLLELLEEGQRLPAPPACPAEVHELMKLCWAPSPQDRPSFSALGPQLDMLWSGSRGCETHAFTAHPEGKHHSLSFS
# Run Description: JAK3 LANCE Ultra kinase assay
# Format: biochemical
# Test Context: 4 uM ATP
Quantity Name: IC50 (nM)

Answered examples (8):
CN(c1c(C#N)cnc2[nH]ccc12)[C@H]1C[C@@H](NS(=O)(=O)CCC(F)(F)F)C1 [Compound H15]	244
CC[C@@H]1CN(C(=O)NCC#N)C[C@@H]1Nc1c(C(F)(F)F)cnc2[nH]ccc12	79
C[C@@H]1CN(S(=O)(=O)C[C@H]2CC[C@H](N(C)c3c(C#N)cnc4[nH]ccc34)CC2)C[C@H]1CO (relative stereo)	197
CC(C)c1nsc(NC(=O)N2C[C@H]3C[C@H](N(C)c4c(C#N)cnc5[nH]ccc45)C[C@H]3C2)n1	76
CN(c1c(C#N)cnc2[nH]ccc12)[C@@H]1CC[C@H](CS(=O)(=O)N2CCC(CO)C2)C1 (some centres unmarked)	70
CN(c1c(C#N)cnc2[nH]ccc12)[C@H]1C[C@@H]2CN(S(=O)(=O)c3cccc(F)c3)C[C@@H]2C1	220
CN(c1c(C#N)cnc2[nH]ccc12)[C@H]1CC[C@H](CS(=O)(=O)N2CCC(CO)C2)CC1 (some centres unmarked)	90
COCCOC1CCCN(S(=O)(=O)C[C@H]2CC[C@@H](N(C)c3c(C#N)cnc4[nH]ccc34)C2)C1 (some centres unmarked)	47

1. CC[C@@H]1CN(C(=O)NC2CC2)C[C@@H]1Nc1c(C#N)cnc2[nH]ccc12 (relative stereo)
2. N#Cc1cnc2[nH]ccc2c1N[C@H]1C[C@@H](NS(=O)(=O)CCC(F)(F)F)C1
Ask: Could you tell me which of 1 and 2 has the lower IC50 reading? Use the label to indicate which entry you chose.
Result: 2

I. CC(C)[C@@H]1CN(C(=O)NCC(F)(F)F)C[C@@H]1Nc1c(C#N)cnc2[nH]ccc12 (relative stereo)
II. CN(C)c1nsc(NC(=O)N2C[C@H]3C[C@H](N(C)c4c(C#N)cnc5[nH]ccc45)C[C@H]3C2)n1
Ask: In the pair I and II , the larger recorded IC50 belongs to which? Use the label to indicate which entry you chose.
Result: I

1. C[C@@H]1CN(C(=O)CC#N)C[C@@H]1N(C)c1c(C#N)cnc2[nH]ccc12 (relative stereo)
2. CN(c1c(C#N)cnc2[nH]ccc12)[C@H]1C[C@@H]2CN(C(=O)NCC(F)(F)F)C[C@@H]2C1
Ask: Identify the entry with the larger IC50. Options: 1 and 2 Answer = label.
Result: 1

---

# Test system: Lewis male mice
# Run Description: Collagen-induced rheumatoid arthritis model, clinical score
# Type: in vivo
# Design: key: 0-4 per limb by redness/deformity, max 16 per animal
# Test Context: clinical score 0-16 per animal, Day 18; compounds 10 mg/kg twice/day, methotrexate 2 mg/kg every three days
Quantity Name: Score Day 18
API doc: respond with a numeric literal and nothing else, no unit.

Use the examples below as a reference point.
COc1nsc(NC(=O)N2C[C@H]3C[C@H](N(C)c4c(C#N)cnc5[nH]ccc45)C[C@H]3C2)n1 [Compound H07]	3.10
CN(c1c(C#N)cnc2[nH]ccc12)[C@H]1C[C@@H]2CN(C(=O)Nc3nc(OCC(C)(C)N)ns3)C[C@@H]2C1 [Compound H44]	2.13
N#Cc1cnc2[nH]ccc2c1N[C@H]1C[C@@H](NS(=O)(=O)CCC(F)(F)F)C1 [Compound H12]	2.90

Briefly, Score Day 18 measured for CCCS(=O)(=O)N[C@H]1C[C@@H](N(C)c2c(C#N)cnc3[nH]ccc23)C1 [Compound H14] : 3.20

---

# Target Or Test System: JAK1 (Homo sapiens (Human), UniProt P23458)
# Sequence (P23458 whole entry): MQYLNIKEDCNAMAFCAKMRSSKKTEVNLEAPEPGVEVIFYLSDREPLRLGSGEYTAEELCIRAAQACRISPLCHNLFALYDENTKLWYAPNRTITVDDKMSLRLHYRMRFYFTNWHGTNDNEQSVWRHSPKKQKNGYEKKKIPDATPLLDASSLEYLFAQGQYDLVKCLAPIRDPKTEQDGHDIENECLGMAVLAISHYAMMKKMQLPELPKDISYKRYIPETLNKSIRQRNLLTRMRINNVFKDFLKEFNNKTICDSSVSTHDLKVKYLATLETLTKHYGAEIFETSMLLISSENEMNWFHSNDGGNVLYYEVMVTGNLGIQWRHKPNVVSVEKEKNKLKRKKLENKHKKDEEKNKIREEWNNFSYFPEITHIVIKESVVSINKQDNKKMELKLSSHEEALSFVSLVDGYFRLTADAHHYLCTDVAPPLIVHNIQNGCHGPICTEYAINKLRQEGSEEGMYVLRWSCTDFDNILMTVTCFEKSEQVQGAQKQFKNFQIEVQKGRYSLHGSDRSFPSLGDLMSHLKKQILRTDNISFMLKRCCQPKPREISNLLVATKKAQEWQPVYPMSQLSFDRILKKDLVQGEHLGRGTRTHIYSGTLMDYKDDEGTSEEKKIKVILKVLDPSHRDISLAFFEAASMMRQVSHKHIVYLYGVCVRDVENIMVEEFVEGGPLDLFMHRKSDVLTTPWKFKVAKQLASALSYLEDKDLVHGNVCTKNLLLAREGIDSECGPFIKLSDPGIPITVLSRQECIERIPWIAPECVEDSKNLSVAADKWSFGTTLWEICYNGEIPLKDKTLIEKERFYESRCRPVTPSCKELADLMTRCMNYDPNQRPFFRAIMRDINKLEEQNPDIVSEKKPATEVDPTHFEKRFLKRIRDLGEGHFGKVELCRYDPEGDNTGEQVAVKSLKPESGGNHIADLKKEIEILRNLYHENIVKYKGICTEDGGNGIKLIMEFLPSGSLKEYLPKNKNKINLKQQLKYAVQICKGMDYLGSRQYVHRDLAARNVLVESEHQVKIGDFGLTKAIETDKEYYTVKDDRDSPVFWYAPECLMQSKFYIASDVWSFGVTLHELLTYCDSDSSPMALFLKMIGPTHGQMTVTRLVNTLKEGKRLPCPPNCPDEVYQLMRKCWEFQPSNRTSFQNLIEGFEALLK
# Run Description: JAK1 LANCE Ultra kinase assay
# Format: biochemical
# Test Context: 38 uM ATP
Quantity Name: IC50 (nM)

Solved entries (count: 4):
CN(c1c(C#N)cnc2[nH]ccc12)[C@H]1C[C@@H](NS(=O)(=O)CCC(F)(F)F)C1 [Compound H10]	4.98
COCCOc1nsc(NC(=O)N2C[C@H]3C[C@H](N(C)c4c(C#N)cnc5[nH]ccc45)C[C@H]3C2)n1	6.89
CN(c1c(C#N)cnc2[nH]ccc12)[C@H]1C[C@@H](NS(=O)(=O)c2cccc3nonc23)C1	0.65
CCC1CN(C(=O)NCC2CC2)CC1Nc1c(C#N)cnc2[nH]ccc12 (stereo not shown)	8.9

P. CC[C@@H]1CN(S(=O)(=O)CCC(F)(F)F)C[C@@H]1Nc1c(C#N)cnc2[nH]ccc12 (relative stereo)
Q. COc1nsc(NC(=O)N2C[C@H]3C[C@H](Nc4c(C#N)cnc5[nH]ccc45)C[C@H]3C2)n1
R. CC[C@@H]1CN(C(=O)CC(F)(F)F)C[C@@H]1N(C)c1c(C#N)cnc2[nH]ccc12 (relative stereo)
Ask: # sort list by recorded IC50, greatest to least Would you mind listing the labels in the order asked for?
Result: Q, R, P

---

# Target Or Test System: JAK1 (Homo sapiens (Human))
# Run Description: JAK1 LANCE Ultra kinase assay
# Type: biochemical
# Test Context: 38 uM ATP
Quantity Name: IC50 (nM)

CC[C@@H]1CN(C(=O)NC2CC2)C[C@@H]1Nc1c(C#N)cnc2[nH]ccc12 (relative stereo)	6.9
CN(c1c(C#N)cnc2[nH]ccc12)[C@H]1C[C@@H]2CN(C(=O)Nc3nc(C4CC4)no3)C[C@@H]2C1	5
CN(c1c(C#N)cnc2[nH]ccc12)[C@H]1C[C@@H]2CN(C(=O)NCC(F)(F)F)C[C@@H]2C1	0.35
O=C(NCC(F)(F)F)N1C[C@H](Nc2c(C(F)(F)F)cnc3[nH]ccc23)[C@H](C2CC2)C1 (relative stereo)	0.92
CCC1CN(C(=O)NCC(F)F)CC1Nc1c(C#N)cnc2[nH]ccc12 (stereo not shown)	5.1

a. CN(C)c1nsc(NC(=O)N2C[C@H]3C[C@H](N(C)c4c(C#N)cnc5[nH]ccc45)C[C@H]3C2)n1
b. CC[C@@H]1CN(C(=O)NCC(C)C)C[C@@H]1Nc1c(C#N)cnc2[nH]ccc12 (relative stereo)
Ask: Could you determine which record has the numerically smaller IC50? Candidates: a and b When you have decided, please share the label of that item.
Result: a

---

# Target Or Test System: JAK1 (Homo sapiens (Human))
# Run Description: JAK1 LANCE Ultra kinase assay
# Format: biochemical
# Test Context: 38 uM ATP
Quantity Name: IC50 (nM)

Reference set, count: 5
CN(c1c(C#N)cnc2[nH]ccc12)[C@H]1C[C@@H]2CN(C(=O)Nc3ccc(Cl)c(C(F)(F)F)c3)C[C@@H]2C1	0.56
CN(c1c(C#N)cnc2[nH]ccc12)[C@H]1CC[C@H](CS(=O)(=O)N2CCC(CO)C2)CC1 (some centres unmarked)	0.81
COc1nsc(NC(=O)N2C[C@H]3C[C@H](Nc4c(C(F)(F)F)cnc5[nH]ccc45)C[C@H]3C2)n1	4.65
COc1noc(NC(=O)N2C[C@H]3C[C@H](N(C)c4c(C#N)cnc5[nH]ccc45)C[C@H]3C2)n1	2.4
CN1CCN(S(=O)(=O)C[C@H]2CC[C@H](N(C)c3c(C#N)cnc4[nH]ccc34)CC2)CC1	1.42

A. CC[C@@H]1CN(C(=O)NCC(C)(F)F)C[C@@H]1Nc1c(C#N)cnc2[nH]ccc12 (relative stereo)
B. CN(c1c(C#N)cnc2[nH]ccc12)[C@H]1C[C@@H]2CN(S(=O)(=O)c3cccc(C(F)(F)F)c3)C[C@@H]2C1
Ask: Choose between A and B : whose measured IC50 value is numerically larger? Returns: label corresponding to the selected item.
Result: B

1. N#Cc1cnc2[nH]ccc2c1N[C@H]1C[C@@H](NS(=O)(=O)CCC(F)(F)F)C1
2. C[C@H](O)C(=O)N1C[C@H]2C[C@@H](N(C)c3c(C#N)cnc4[nH]ccc34)C[C@H]2C1
Ask: Lower IC50: 1 or 2 ? Identify your pick by its label.
Result: 1
(1: 0.56 nM, 2: 6.68 nM)

a. CN(c1c(C#N)cnc2[nH]ccc12)[C@H]1C[C@@H]2CN(S(=O)(=O)c3cccc(F)c3)C[C@@H]2C1
b. CN(c1c(C#N)cnc2[nH]ccc12)[C@H]1C[C@@H]2CN(S(=O)(=O)CCC(F)(F)F)C[C@@H]2C1
c. CN(c1c(C#N)cnc2[nH]ccc12)[C@H]1C[C@@H](NS(=O)(=O)CCC(F)(F)F)C1 [Compound H15]
d. COCc1nsc(NC(=O)N2C[C@H]3C[C@H](N(C)c4c(C#N)cnc5[nH]ccc45)C[C@H]3C2)n1
Ask: Sort low-to-high on IC50, please. Reply with the labels, ordered as the question asks.
Result: d, c, b, a
(d: 1.43 nM, c: 2.36 nM, b: 5.6 nM, a: 9.5 nM)

Cited source for all entries: patent US12398141B2
